// data source = PubChem BioAssay (Tox21)

Experiment: qHTS RealTime-Glo MT Cell Viability Assay in HepG2 cells - 32 hour (AID 1224877); also: nearly all actives have a fitted effect of over 55% in size
Conditions: RealTime-Glo luminescence; series mostly up to 76.8 µM
Inconclusive results are not listed. The source made the active and inactive calls. Calls follow the shape of the dose curve; as a rule, active = well fitted cell-killing curve with a large enough effect in the repeat runs; inconclusive = weak or mixed curves; inactive = flat fitted curve, though single readings scatter.
Labels: active, inactive

{"molecule": "O=C1OC(OC(=O)c2cccnc2Nc2cccc(C(F)(F)F)c2)c2ccccc21 (stereo not drawn)", "group": "inactive"}
{"molecule": "ClC/C=C\\CCl", "group": "inactive"}
{"molecule": "COc1cccc(OC)c1O", "group": "inactive"}
{"molecule": "CN1CN(C)CN(C)C1", "group": "inactive"}
{"molecule": "Cn1cnc2ncnc(N)c21", "group": "inactive"}
{"molecule": "CC(C)=CC1CC(C)CCO1 (stereo not drawn)", "group": "inactive"}
{"molecule": "Cc1cc2c(C(C)C)c(O)c(O)c(C=O)c2c(O)c1-c1c(C)cc2c(C(C)C)c(O)c(O)c(C=O)c2c1O", "group": "active"}
{"molecule": "O=C1C=CC(=O)N1c1ccccc1", "group": "active"}
{"molecule": "CCCCCCCCCC(=O)N(C)C", "group": "inactive"}
{"molecule": "CC(=O)Oc1ccc(C2(c3ccc(OC(C)=O)cc3)Oc3ccccc3NC2=O)cc1", "group": "inactive"}
{"molecule": "O=Cc1ccc(F)cc1", "group": "inactive"}
{"molecule": "CCCCCCCOC(=O)c1ccccc1C(=O)OCCCCCCC", "group": "inactive"}
{"molecule": "C=CCCCCCCC=C", "group": "inactive"}

----------
Experiment: Caspase-3/7 induction in CHO-K1 cells by small molecules, qHTS cell viability counter screen (AID 1346979); also: nearly all actives have a fitted effect of over 35% in size
Conditions: CellTiter-Fluor fluorescence, 17 h; series mostly up to 92.4 µM
Results filed as inconclusive are left out. Calls of active or inactive are those of the source. Calls come from the whole dose curve; as a rule, active = well fitted cell-killing curve with a large enough effect in the repeat runs; inconclusive = weak or mixed curves, or effect the other way; inactive = no such curve, though single readings can be large or run the other way.
Labels: True for active, False for inactive

{"molecule": "CCCCCCCC/C=C\\CCCCCCCC(=O)N(C)CC(=O)O", "group": "True"}
{"molecule": "C=C(C)C(=O)OCCC[Si](Cl)(Cl)Cl", "group": "False"}
{"molecule": "Clc1cc(Cl)c(-c2c(Cl)c(Cl)cc(Cl)c2Cl)cc1Cl", "group": "False"}
{"molecule": "CC(C)(C)c1cc(CCC(=O)NCCCCCCNC(=O)CCc2cc(C(C)(C)C)c(O)c(C(C)(C)C)c2)cc(C(C)(C)C)c1O", "group": "False"}
{"molecule": "Cc1cncc(C)c1", "group": "False"}
{"molecule": "CCOCOCC", "group": "False"}
{"molecule": "CC(C)=CCCC(C)O (stereo unspecified)", "group": "False"}
{"molecule": "CCCCCCCOC(=O)c1ccccc1C(=O)OCCCCCCC", "group": "False"}
{"molecule": "CN(C)c1ccc(N=NS(=O)(=O)O)cc1", "group": "True"}
{"molecule": "COc1cccc(OC)c1O", "group": "False"}
{"molecule": "CC[N+](CC)(CC)Cc1ccccc1", "group": "False"}
{"molecule": "Clc1ccc(C(Cn2ccnc2)OCc2c(Cl)cccc2Cl)c(Cl)c1 (stereo unspecified)", "group": "True"}
{"molecule": "Cc1cccc(N(C)C)c1", "group": "False"}
{"molecule": "CCCC(O)C(O)CO (stereo unspecified)", "group": "False"}
{"molecule": "CN1CN(C)CN(C)C1", "group": "False"}
{"molecule": "O=S(=O)(O)CCCN1CCOCC1", "group": "False"}
{"molecule": "CCN(CC)c1ccc(N)cc1", "group": "True"}
{"molecule": "CC1=CCC(=O)O1", "group": "False"}
{"molecule": "CCCCCCCCCC(=O)N(C)C", "group": "False"}
{"molecule": "c1cc2c3c(c1)ccc1cccc(c13)C2", "group": "False"}
{"molecule": "COc1ccccc1C=O", "group": "False"}
{"molecule": "C/C=C/CO", "group": "False"}
{"molecule": "CCO[Si](C)(C)OCC", "group": "False"}
{"molecule": "O=C1OC(OC(=O)c2cccnc2Nc2cccc(C(F)(F)F)c2)c2ccccc21 (stereo unspecified)", "group": "False"}
{"molecule": "CC1(C)COCN1", "group": "False"}
{"molecule": "C=CC(=O)OCCOCC(CC)(COCCOC(=O)C=C)COCCOC(=O)C=C", "group": "True"}
{"molecule": "Cc1ccc(O)cn1", "group": "False"}
{"molecule": "CC(C)(C)C1=CC(=O)C=C(C(C)(C)C)C1=O", "group": "False"}
{"molecule": "C=C(C)CCCC", "group": "False"}
{"molecule": "O=C(O)CCn1c2c(c3ccccc31)C[C@H](NS(=O)(=O)c1ccc(F)cc1)CC2", "group": "False"}
{"molecule": "O=C(Oc1ccccc1)c1cccc(C(=O)Oc2ccccc2)c1", "group": "True"}
{"molecule": "Nc1ncnc2c1ncn2[C@@H]1O[C@H](COP(=O)(O)O)[C@@H](O)[C@H]1O", "group": "False"}
{"molecule": "CC(=O)C=O", "group": "False"}
{"molecule": "O=Cc1ccc(F)cc1", "group": "False"}
{"molecule": "CCCCOC(=O)C(C)CC (stereo unspecified)", "group": "False"}
{"molecule": "CO[C@H]1C=CO[C@@]2(C)Oc3c(C)c(O)c4c(O)c(cc(O)c4c3C2=O)NC(=O)/C(C)=C\\C=C/[C@H](C)[C@H](O)[C@@H](C)[C@@H](O)[C@@H](C)[C@H](OC(C)=O)[C@@H]1C", "group": "True"}
{"molecule": "COc1cc(C(=O)NS(=O)(=O)c2ccccc2C)ccc1Cc1cn(C)c2ccc(NC(=O)OC3CCCC3)cc12", "group": "False"}
{"molecule": "C/C=C/C(=O)C1=C(C)CCCC1(C)C", "group": "False"}
{"molecule": "CCC(C)C(=O)OC (stereo unspecified)", "group": "False"}
{"molecule": "CC=O", "group": "True"}
{"molecule": "C=CC(=C)CCC=C(C)C", "group": "False"}
{"molecule": "Brc1ccccn1", "group": "False"}
{"molecule": "COC(=O)[C@]1(C)CCC[C@@]2(C)[C@H]1CC=C1C=C(C(C)C)CC[C@@H]12", "group": "False"}
{"molecule": "O=C(O)Cc1ccc(OCCNC[C@H](O)c2ccccc2)cc1", "group": "False"}
{"molecule": "CCCOc1sc(C(=O)N2CCC(c3cc(CN)ccc3F)CC2)c(C)c1Br", "group": "True"}
{"molecule": "c1ccc(Sc2ccccc2)cc1", "group": "False"}

----------
Assay: qHTS assay to identify small molecule antagonists of the retinoic acid receptor (RAR) signaling pathway (AID 1159552; also: nearly all actives have a fitted effect of over 50% in size; also: potency is read from the fitted curve at half-maximal effect)
Details: C3RL4 RARE luciferase reporter, retinol-stimulated, 6 h; series mostly up to 92.4 µM
Source text: National Center for Advancing Translational Sciences [NCATS] NIH Chemical Genomics Center [NCGC] U.S. Environmental Protection Agency [EPA] National Institutes of Environmental Health Sciences [NIEHS] National Toxicology Program [NTP] U.S. Food and Drug Administration [FDA] […]
Inconclusive results are not listed. Calls of active or inactive are those of the source. The call rests on the fitted dose curve; in most records, active means well fitted inhibition curve with a large enough effect in the repeat runs; inconclusive means weak or mixed curves, or effect the other way; inactive means no such curve, though single readings can be large or run the other way.

{"molecule": "CCc1c(Br)c(Br)c(Br)c(Br)c1Br", "Potency": "inactive"}
{"molecule": "CSc1c(Cl)c(Cl)c(Cl)c(Cl)c1Cl", "Potency": "inactive"}
{"molecule": "O=C(NO)c1ccccc1", "Potency": "inactive"}
{"molecule": "CC(C)(C)CC(C)(C)c1ccccc1O", "Potency": "27.4 µM (active)"}
{"molecule": "CN1CCN(C2Cc3ccccc3Sc3ccc(Cl)cc32)CC1 (stereo not given)", "Potency": "29.8 µM (active)"}
{"molecule": "Cc1cccc(Br)c1", "Potency": "inactive"}
{"molecule": "C/C=C/C(=O)C1=C(C)CCCC1(C)C", "Potency": "inactive"}
{"molecule": "CC(C)c1cccc(C(C)C)c1N1C(=O)c2ccc(O)cc2C1=O", "Potency": "24.3 µM (active)"}
{"molecule": "ClC/C=C\\CCl", "Potency": "inactive"}
{"molecule": "Cc1cnccn1", "Potency": "inactive"}
{"molecule": "CC1(C)C(=O)N(CO)C(=O)N1CO", "Potency": "inactive"}
{"molecule": "Brc1ccccn1", "Potency": "inactive"}
{"molecule": "Cc1ccc(CCn2c3c(c4cc(Cl)ccc42)CN(C)CC3)cn1", "Potency": "inactive"}
{"molecule": "CCCCCCCC(=O)OCC", "Potency": "inactive"}
{"molecule": "CN(C)CCN1CCOCC1", "Potency": "inactive"}
{"molecule": "COc1cc(C(=O)NS(=O)(=O)c2ccccc2C)ccc1Cc1cn(C)c2ccc(NC(=O)OC3CCCC3)cc12", "Potency": "inactive"}
{"molecule": "Oc1cc2ccccc2cc1O", "Potency": "inactive"}
{"molecule": "C(=C/c1ccccc1)/c1ccccc1", "Potency": "inactive"}
{"molecule": "COc1ccc(C#N)cc1", "Potency": "inactive"}
{"molecule": "CCCC(=O)OCC(COC(=O)CCC)OC(=O)CCC", "Potency": "inactive"}
{"molecule": "CC(C)(C)C1=CC(=O)C=C(C(C)(C)C)C1=O", "Potency": "inactive"}
{"molecule": "Cn1cccc1", "Potency": "inactive"}
{"molecule": "CCCCCCCC(OC)OC", "Potency": "inactive"}
{"molecule": "CCc1c(C(=O)O)c(=O)cnn1-c1ccc(Cl)cc1", "Potency": "inactive"}
{"molecule": "CCCCCCCCCCCCCCCC", "Potency": "inactive"}
{"molecule": "C[n+]1c2cc(N)ccc2cc2ccc(N)cc21 (tested in a mixture with another compound)", "Potency": "23.7 µM (active)"}
{"molecule": "Oc1ccc(-c2ccc(O)cc2)cc1", "Potency": "inactive"}
{"molecule": "CCc1cccc(CC)c1N(COC)C(=O)CS(=O)(=O)O", "Potency": "inactive"}
{"molecule": "CC(C)c1ccc(O)c(C(C)C)c1", "Potency": "inactive"}
{"molecule": "O=C(Nc1ccc(Cl)cc1)Nc1ccc(Cl)c(C(F)(F)F)c1", "Potency": "23.7 µM (active)"}
{"molecule": "COc1cc(C=C2CCC/C(=C\\c3ccc(O)c(OC)c3)C2=O)ccc1O", "Potency": "inactive"}
{"molecule": "CC(=O)O[C@@H]1C[C@@H]2CC[C@@]1(C)C2(C)C", "Potency": "inactive"}
{"molecule": "CCC(C)C(=O)OC (stereo not given)", "Potency": "inactive"}
{"molecule": "CCCCOCC", "Potency": "inactive"}
{"molecule": "C/C=C/CO", "Potency": "inactive"}
{"molecule": "CC(COC(=O)c1ccccc1)OC(=O)c1ccccc1 (stereo not given)", "Potency": "inactive"}
{"molecule": "C[Si](C)O[Si](C)C", "Potency": "inactive"}
{"molecule": "O=C(c1ccccc1)c1cc(Cl)ccc1O", "Potency": "inactive"}
{"molecule": "CS(C)(=O)=O", "Potency": "inactive"}
{"molecule": "CCOC(=O)C1=C(C)NC(C)=C(C(=O)OCC)C1c1ccccc1/C=C/C(=O)OC(C)(C)C", "Potency": "29.8 µM (active)"}
